Reported growth values follow for various compounds
test system: KM12 colon; test: NCI-60 one-dose screen, 48 h (100 = growth as untreated, 0 = no growth, -100 = all killed); conditions: 10 µM unless noted
About 83,000 compounds went through this panel and 20% of them were active in at least one assay; those are over-represented in the sample as a whole.
State just the number; it will be interpreted in %.

Example compounds with recorded growth:
INSERT INTO assay_data (query_smiles, units, endpoint_value) VALUES
  ('CCCN1CCN(c2ccc3nc(-c4ccc5nc(-c6ccc(OCC)c(OCC)c6)[nH]c5c4)[nH]c3c2)CC1', '%', -54.8),
  ('O=C(Nc1ccc(N2CCCCC2)c(Cl)c1)c1ccc(Br)o1', '%', 70.1),
  ('CCN(CC)CCOC(=O)N1c2ccccc2Sc2ccccc21', '%', 99.3),
  ('CN(C)c1ccc(/C=C2\C=C(c3ccccc3)N(CCc3ccccc3)C2=O)cc1', '%', 89.8),
  ('COc1ccc(-c2nc3ncccn3c2/C=C/C(=O)c2cc(OC)c(OC)c(OC)c2)cc1', '%', -56.9),
  ('COc1cc(/C=C2\C=C(c3ccccc3)N(CCc3ccccc3)C2=O)cc(OC)c1OC', '%', 80.6),
  ('Clc1cnc(Nc2ccc(OCCN3CCCC3)cc2)nc1NCc1ccco1', '%', 4.56),
  ('CC[C@@H](C[C@H](CCO)c1ccccc1)c1cc2ccccc2o1', '%', 88.7);

Give growth for the following compound: Cn1ncc2c(Nc3ccc(Br)cc3)nc(Nc3ccc(Br)cc3)nc21 37.1

Give growth for the following compound: COc1cc2oc(-c3cccc(C(=O)Nc4ccc(C)cc4)c3)cc(=O)c2c(OC)c1OC 33

Give growth for the following compound: CCn1nc(C#Cc2c(C)ccc3c(Nc4ccc(Cl)cc4)nccc23)c2c(N)ncnc21 14.2

Give growth for the following compound: COc1cc2c(cc1OC)-c1ccc3cc4c(cc3c1N(CCCN1CCCCC1)C2)OCO4 48.5

Give growth for the following compound: Nc1c(C(=O)c2ccccc2)nnc2ncnn12 105

Give growth for the following compound: C/C(=N\NC(=O)Cn1c(-c2ccc(S(C)(=O)=O)cc2)nc2cc(Cl)ccc21)c1ccc(Cl)cc1 76.4

Give growth for the following compound: Cc1ccc(S(=O)(=O)NN/C(N)=N\S(=O)(=O)c2cc(C)c(Cl)cc2SCc2ccccc2)cc1 97.3

* * *

Reported growth values follow for various compounds
test system: SK-MEL-28 melanoma; experiment: NCI-60 one-dose screen, 48 h (100 = growth as untreated, 0 = no growth, -100 = all killed); conditions: 10 µM unless noted
Compounds without any hit were thinned out: in the full panel of roughly 83,000, 20% have a hit.
State just the number; it will be interpreted in %.

Give growth for the following compound: COc1ccc(/C=C2\COc3ccc(O)c(O)c3C2=O)c(OC)c1 76.4

Give growth for the following compound: Cc1cc(C)on1 101

Give growth for the following compound: C=CCO[C@H]1CO[C@H]2[C@@H]1OC[C@@H]2Oc1ccc(Nc2ccnc(Nc3ccc(O[C@H]4CO[C@H]5[C@@H]4OC[C@@H]5OCC=C)c(Cl)c3)n2)cc1Cl -80.3

* * *

system: A498 renal; assay: NCI-60 one-dose screen, 48 h (100 = growth as untreated, 0 = no growth, -100 = all killed); details: 10 µM unless noted
About 83,000 compounds went through this panel and 20% of them were active in at least one assay; those are over-represented in the sample as a whole.
Reported growth values follow for various molecules
State just the number; it will be interpreted in %.

Example molecules with recorded growth:
INSERT INTO results (molecule, measurement_kind, endpoint_value) VALUES
  ('CCO/C=N/C1=C(C#N)C(c2ccc(OC)cc2)c2c(c3ccccc3n(C)c2=O)O1 (stereo not drawn)', 'growth', 111),
  ('CN1CCN(C(=O)[C@]23CCC(C)(C)C[C@@H]2C2=CC[C@@H]4[C@@]5(C)Cc6c([nH]c7ccccc67)C(C)(C)[C@@H]5CC[C@@]4(C)[C@]2(C)CC3)CC1', 'growth', 96.5),
  ('CC(=O)Nc1nccs1', 'growth', 73.6),
  ('Nc1c(C(=O)c2ccc(Cl)s2)sc2nc3c(cc12)CCCC3', 'growth', 72),
  ('O=C1C=CC(=Nc2cc(Br)c(O)c(Br)c2)C=C1', 'growth', 97.2),
  ('Cc1ccc(S(=O)(=O)NN/C(N)=N\S(=O)(=O)c2cc(C)c(Cl)cc2SCc2ccccc2)cc1', 'growth', 91),
  ('NS(=O)(=O)c1cnccc1-n1ccc(=O)c(S(N)(=O)=O)c1', 'growth', 85.4);

Give growth for the following molecule: COc1ccc(-n2nnc(C(=O)NCCc3c[nH]c4ccc(F)cc34)c2C)cc1 100

* * *

system: K-562 leukemia; assay: NCI-60 one-dose screen, 48 h (100 = growth as untreated, 0 = no growth, -100 = all killed); settings: 10 µM unless noted
The panel holds about 83,000 compounds, 20% with a hit somewhere; the sample as a whole holds those more often.
Assign true (1) whenever growth does not fall below 60%; assign false (0) whenever it does.

Below, 6 molecules whose answers are already recorded.
INSERT INTO results (molecule, target_or_test_system, class_name) VALUES
  ('CCOc1ccc(S(=O)(=O)c2ccc(C)cc2)c2c1no[n+]2[O-]', 'K-562 leukemia', 'false (0)'),
  ('Cc1nc(Nc2ccc(S(=O)(=O)Nc3cc(C)on3)cc2)c2ccccc2n1', 'K-562 leukemia', 'true (1)'),
  ('O=[N+]([O-])c1cccc(/C=C/c2ccccn2)c1', 'K-562 leukemia', 'true (1)'),
  ('CSc1nc2sc3cc(Cl)ccc3n2c(=N)c1C#N', 'K-562 leukemia', 'true (1)'),
  ('Cc1cnc(Nc2ccc(N3CCN(C)CC3)cc2)nc1Nc1ccc(Cl)c(NS(=O)(=O)C(C)(C)C)c1', 'K-562 leukemia', 'false (0)'),
  ('CC(=O)Nc1ccc(-c2cc3c(NCc4ccc(F)cc4)ncnc3s2)cc1', 'K-562 leukemia', 'true (1)');

hey, is growth for this one >= 60%? Cc1nc2ccccc2c(/C=C/c2ccc(Cl)cc2)c1C(=O)/C=C/c1ccc(Cl)cc1 false (0)

hey, is growth for this one >= 60%? Cc1nc(-c2ccccc2)cc2c(O)c(C(=O)N/N=C/c3ccc(N(C)C)cc3)[nH]c(=O)c12 true (1)

hey, is growth for this one >= 60%? O=C(NCCOCCOCCNc1cccc2c1C(=O)N(C1CCCNC1=O)C2=O)c1cc2c(o1)C(=O)c1ccccc1C2=O (stereo not given) false (0)

hey, is growth for this one >= 60%? CCOc1ccc2nc(-c3cccc(OCC(=O)NC(C)C)c3)nc(Nc3ccc(-c4cn[nH]c4)cc3)c2c1 false (0)

* * *

System: RXF 393 renal
Experiment: NCI-60 one-dose screen, 48 h (100 = growth as untreated, 0 = no growth, -100 = all killed)
Conditions: 10 µM unless noted
Procedure: Cells are grown in 96 well plates and exposed to the test compound for 48 hours. Compounds are tested at a single concentration, which is 10^-5 M for most compounds. The reported endpoint is percent growth (GI% or GIPRCNT), where numbers from 0 - 100% represent growth inhibition, and numbers from -100% - 0 represent cell death. For example, a value of 40 represents 60% growth inhibition. A value of 0 means no net growth occurred over the course of the experiment. […]
This is part of a sample that, as a whole, favours compounds with a hit. Of some 83,000 tested, about 20% had one in any assay.
Assign rule met whenever growth does not fall below 80%; assign rule not met whenever it does.

Below, 3 compounds whose answers are already recorded.
INSERT INTO measurements (query_smiles, class_name) VALUES
  ('C#C[C@]1(O)CC[C@H]2[C@@H]3CC=C4c5sc(N=C(N)N)nc5CC[C@]4(C)[C@H]3CC[C@@]21C', 'rule not met'),
  ('Cn1c(NCCc2ccc(O)c(O)c2)nc2c1c(=O)n(Cc1ccc(Cl)cc1)c(=O)n2C', 'rule not met'),
  ('CC(=O)C(C(C)=O)c1nc2sc3cc(Cl)ccc3n2c(=N)c1C#N', 'rule met');

hey, is growth for this one >= 80%? O=C(NC1CCOCC1)c1ccc2c(c1)CN(c1ncc(Cc3cccc(-n4cccn4)c3)s1)CC2 rule not met

hey, is growth for this one >= 80%? CCn1c(Sc2nnc(NC(=O)CCN3CCCC3)s2)nc2c1c(=O)n(C)c(=O)n2C rule met

hey, is growth for this one >= 80%? Fc1ccc(Nc2nc(Nc3ccc(-c4nc5ccccc5[nH]4)cc3)c3cn[nH]c3n2)cc1 rule not met

* * *

system: NCI/ADR-RES ovarian; test: NCI-60 one-dose screen, 48 h (100 = growth as untreated, 0 = no growth, -100 = all killed); conditions: 10 µM unless noted
This is part of a sample that, as a whole, favours compounds with a hit. Of some 83,000 tested, about 20% had one in any assay.
measurement-kind: growth (%)
State just the number; it will be interpreted in %.

INSERT INTO results (compound, measurement_kind, endpoint_value) VALUES
  ('CN(C)c1ccc(/C=C2\C=C(c3ccccc3)N(CCc3ccccc3)C2=O)cc1', 'growth', 48.6),
  ('CSc1nc(N)c(CNC(C)c2ccccc2)c(=O)n1C (centres undefined)', 'growth', 100),
  ('O=c1cc(-c2ccc(OCc3ccccc3)cc2)oc2c(I)c(OCc3ccccc3)cc(OCc3ccccc3)c12', 'growth', 101);

Give growth for the following compound: COc1cc(/C=C/c2nc(Nc3ccc(S(=O)(=O)Nc4cc(C)on4)cc3)c3ccccc3n2)ccc1O 51

Cited source for all entries: PubChem BioAssay (NCI)
